Assignment: determine reported log10 of Binding affinity (RU) for the given binders.
molecular target: acetylcholine receptor; assay: SPR, AchR immobilised on CM5 chip, peptide 10 uM
Quick note: numbers are log10 of Binding affinity (RU), with RU as the unit.

{"binder": "RKDDKK [6mer-1-981]", "log10 of Binding affinity (RU)": 1.43}
{"binder": "RYSAKK [6mer-2-679]", "log10 of Binding affinity (RU)": 1.30}
{"binder": "KRIWDK [6mer-1-965]", "log10 of Binding affinity (RU)": 1.56}
{"binder": "KRANMK [6mer-1-1017]", "log10 of Binding affinity (RU)": 1.57}
{"binder": "KNAGKR [6mer-2-699]", "log10 of Binding affinity (RU)": 1.36}

Batch: log10 of Binding affinity (RU) for all items listed.
1. KKHEFR [6mer-1-994]
2. KKIAWK [6mer-1-938]
3. KNENRK [6mer-2-789]
4. RAEDKR [6mer-2-792]
5. KNNHKK [6mer-2-736]
6. KNSEKK [6mer-2-626]
7. RNAPKK [6mer-2-778]
8. KMAPKR [6mer-2-636]

1.57
1.45
1.38
1.11
1.46
1.52
1.32
1.32
